Record set: pKi | Fatty acid-binding protein, adipocyte (Homo sapiens, UniProt P15090) | literature, multiple sources.
pKi: −log10 of the molar value.
attribute measured: pKi

{"columns": ["compound", "attribute measured", "relational operator", "recorded value"],
 "data": [
  ["O=C(O)C1CCc2ccc(-c3cccc(Cl)c3OCC3CCCC3)cc21 (configuration not stated)", "pKi", "=", 5.76],
  ["Cc1cc(C)c2c3c1C1C=CCC1CN3C(C(=O)O)C1CC=CC21 (configuration not stated)", "pKi", "=", 6.21],
  ["COc1ccc(S(=O)(=O)Nc2ccc(F)c(C(=O)O)c2)c2ccccc12", "pKi", "=", 6.68],
  ["COc1ccc(S(=O)(=O)Nc2cccc(C(=O)O)c2C)c2ccccc12", "pKi", "<", 5.21],
  ["Cc1ccc(-c2cccc(Cl)c2-c2ccc3c(c2)CCO3)cc1C(=O)O", "pKi", "=", 6.49],
  ["O=C(O)C1CCc2ccc(-c3cccc(Cl)c3-c3ccc4[nH]ncc4c3)cc21 (configuration not stated)", "pKi", "=", 6.12],
  ["COc1ccc(S(=O)(=O)NCc2cccc(C(=O)O)c2)c2ccccc12", "pKi", "=", 5.67],
  ["Cc1c(C)c(C)c(S(=O)(=O)NCCCCC(=O)O)c(C)c1C", "pKi", "=", 6.04],
  ["O=C(O)C1C2CC=CC2c2cc(Br)cc3c2N1CC1CC=CC31 (configuration not stated)", "pKi", "=", 6.54],
  ["OCC(O)c1cccc(OCc2ccccc2Cl)c1OCc1ccccc1Cl (configuration not stated)", "pKi", "<", 5.70],
  ["COc1ccc(S(=O)(=O)Nc2cncc(C(=O)O)c2)c2ccccc12", "pKi", "<", 5.21],
  ["COc1ccc(S(=O)(=O)NCc2ccc(C(=O)O)cc2)c2ccccc12", "pKi", "=", 6.12],
  ["O=C(Nc1cc(Cl)ccc1Cl)/C(=N\\Nc1ccccc1C(=O)O)C(=O)c1ccccc1", "pKi", "=", 4.99],
  ["O=C(O)CSCC(=O)Nc1cc(Cl)cc(Cl)c1", "pKi", "=", 5.78],
  ["COc1ccc(S(=O)(=O)Nc2cccc(CCC(=O)O)c2)c2ccccc12", "pKi", "=", 6.24],
  ["O=C(O)c1cccc(-c2cccc(Cl)c2-c2ccc3c(c2)CCO3)c1", "pKi", "=", 6.32],
  ["Cc1cc(C)c(S(=O)(=O)NCCCCC(=O)O)c(C)c1", "pKi", "=", 5.57],
  ["O=C(O)c1cc(-c2cccc(Cl)c2-c2ccc3c(c2)CCO3)ccc1[N+](=O)[O-]", "pKi", "=", 6.52],
  ["CS(=O)(=O)Nc1ccc(-c2cccc(Cl)c2-c2ccc3c(c2)CCO3)cc1C(=O)O", "pKi", "=", 6.48],
  ["O=C(O)C1CCc2ccc(-c3cccc(Cl)c3-c3ccc4nonc4c3)cc21 (configuration not stated)", "pKi", "=", 5.63],
  ["O=C(O)c1cc(-c2cccc(Cl)c2-c2ccc3occc3c2)ccc1C(F)(F)F", "pKi", "=", 6.14],
  ["O=C(O)CCCCNS(=O)(=O)c1cc(Cl)cc(Cl)c1", "pKi", "=", 5.92]
]}
